Values compiled from patent US8901118B2.

What follows is a record of IC50 for CYP2C9 (Homo sapiens).

> print(dat)
                                   compound  outcome.measure  endpoint.value
1  CNc1ncnc2[nH]cc(C(=O)c3ccc(Nc4ccc(C5CC5)nc4)nc3F)c12 [Compound P-4094]             IC50          < 5 µM
2  CCc1ccc(Nc2ccc(C(=O)c3c[nH]c4ncnc(NC)c34)c(F)n2)cn1 [Compound P-4124]             IC50          < 5 µM
3  CCOc1ncnc2[nH]cc(Cc3ccc(Nc4ccc(C)nc4)nc3F)c12 [Compound P-4017]             IC50         > 10 µM

Missing value: IC50, CYP2C9 (Homo sapiens), entry Cc1cnc2[nH]cc(Cc3ccc(NC4CCCCC4)nc3F)c2c1 [Compound P-3008] . Fill in?
5 to 10 µM

What about this compound? COc1ccc(Nc2ccc(C(=O)c3c[nH]c4ncnc(NCc5ccc(C(F)(F)F)nc5)c34)c(F)n2)cn1 [Compound P-4071]
> 10 µM

What about this compound? Fc1nc(Nc2ccc(C3CC3)nc2)ccc1Cc1c[nH]c2ncnc(C3CC3)c12 [Compound P-4041]
5 to 10 µM

What about this compound? CNc1ncnc2[nH]cc(C(=O)c3ccc(NC4CCC(F)(F)CC4)nc3Cl)c12 [Compound P-4058]
> 10 µM

What about this compound? CNc1ncnc2[nH]cc(C(=O)c3ccc(Nc4ccc(C(F)(F)F)nc4)nc3F)c12 [Compound P-4092]
< 5 µM

What about this compound? Cc1cnc2[nH]cc(Cc3ccc(Nc4ccc(C5CC5)nc4)nc3F)c2c1 [Compound P-3050]
> 10 µM

What about this compound? Cc1ccc(Nc2ccc(C(=O)c3c[nH]c4ncc(Cl)cc34)c(F)n2)cn1 [Compound P-3044]
> 10 µM

What about this compound? COc1cncc(Nc2ccc(C(=O)c3c[nH]c4ncnc(NC5CC5)c34)c(F)n2)c1 [Compound P-4107]
< 5 µM

What about this compound? Fc1nc(NC2CCC(F)(F)CC2)ccc1Cc1c[nH]c2ncc(Cl)cc12 [Compound P-3013]
> 10 µM

What about this compound? CCc1ccc(Nc2ccc(C(=O)c3c[nH]c4ncnc(NCC(F)(F)F)c34)c(F)n2)cn1 [Compound P-4120]
< 5 µM

What about this compound? O=C(c1cnc(NC2CCC(F)(F)CC2)c(F)c1)c1c[nH]c2ncnc(NCC(F)(F)F)c12 [Compound P-4052]
> 10 µM

What about this compound? CCOc1ccc(Nc2ccc(C(=O)c3c[nH]c4ncnc(OC)c34)c(F)n2)cn1 [Compound P-4024]
> 10 µM

What about this compound? COc1ccc(Nc2ccc(C(=O)c3c[nH]c4ncnc(NC5CCCC5)c34)c(F)n2)cn1 [Compound P-4075]
> 10 µM

What about this compound? CCC(CC)Nc1ncnc2[nH]cc(C(=O)c3ccc(Nc4ccc(OC)nc4)nc3F)c12 [Compound P-4077]
> 10 µM

What about this compound? CCc1ccc(Nc2ccc(C(=O)c3c[nH]c4ncnc(NC5CCOCC5)c34)c(F)n2)cn1 [Compound P-4116]
> 10 µM

What about this compound? Fc1nc(Nc2ccc(C3CC3)nc2)ccc1Cc1c[nH]c2ncnc(NCC(F)(F)F)c12 [Compound P-4130]
> 10 µM

What about this compound? CNc1ncnc2[nH]cc(C(=O)c3ccc(NC4CCC(F)(F)CC4)nc3)c12 [Compound P-4089]
> 10 µM

What about this compound? Cc1ccc(Nc2ccc(Cc3c[nH]c4ncnc(C5CC5)c34)c(F)n2)cn1 [Compound P-4030]
> 10 µM

What about this compound? CCc1ccc(Nc2ccc(C(=O)c3c[nH]c4ncnc(C5CC5)c34)c(F)n2)cn1 [Compound P-4029]
> 10 µM
